Ref: ChEMBL document CHEMBL4261537

- assay system: Acetylcholinesterase (Homo sapiens)
- Sequence (P22303 whole entry): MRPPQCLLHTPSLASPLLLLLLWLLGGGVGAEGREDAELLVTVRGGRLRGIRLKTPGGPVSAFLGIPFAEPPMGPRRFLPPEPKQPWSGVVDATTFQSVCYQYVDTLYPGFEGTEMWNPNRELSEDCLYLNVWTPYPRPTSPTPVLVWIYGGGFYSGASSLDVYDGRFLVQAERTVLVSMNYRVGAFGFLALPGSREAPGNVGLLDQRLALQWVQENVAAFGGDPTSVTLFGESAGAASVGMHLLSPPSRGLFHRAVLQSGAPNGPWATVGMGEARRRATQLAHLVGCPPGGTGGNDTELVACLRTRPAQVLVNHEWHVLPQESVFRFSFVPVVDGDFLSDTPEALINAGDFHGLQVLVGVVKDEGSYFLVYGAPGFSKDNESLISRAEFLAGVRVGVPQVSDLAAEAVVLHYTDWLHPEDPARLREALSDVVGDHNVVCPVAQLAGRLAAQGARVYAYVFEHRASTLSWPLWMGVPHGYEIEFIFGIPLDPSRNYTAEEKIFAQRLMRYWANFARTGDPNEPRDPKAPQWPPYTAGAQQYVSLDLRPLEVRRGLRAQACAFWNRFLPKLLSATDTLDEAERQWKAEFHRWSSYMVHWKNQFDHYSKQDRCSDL
Labelling field: enter condition met if recorded IC50 is less than 30 µM. Enter condition not met if it equals or exceeds that cut-off.

CN(CCCCCCOc1ccc(/C=C2\COc3ccccc3C2=O)cc1)Cc1ccccc1: condition not met
O=C1/C(=C/c2ccc(OCCCN3CCN(Cc4ccccc4)CC3)cc2)COc2ccccc21: condition met
CCN(CC)CCCCCCOc1ccc(/C=C2\COc3ccccc3C2=O)cc1: condition met
CN(C)CCOc1cccc(/C=C2\COc3ccccc3C2=O)c1: condition met
CN(C)CCOc1ccc(/C=C2\COc3ccccc3C2=O)cc1: condition met

Problem: Does CCN(CC)CCCCOc1ccc(/C=C2\COc3ccccc3C2=O)cc1 have IC50 strictly under 30 µM?
Solution: condition met

Problem: Does CCN(CC)CCOc1ccc(/C=C2\COc3ccccc3C2=O)cc1 have IC50 strictly under 30 µM?
Solution: condition met

Problem: Does O=C1/C(=C/c2ccc(O)cc2)COc2ccccc21 have IC50 strictly under 30 µM?
Solution: condition not met

Problem: Does CN(C)CCCOc1cccc(/C=C2\COc3ccccc3C2=O)c1 have IC50 strictly under 30 µM?
Solution: condition met
